Reference for the values: PubChem BioAssay (Tox21)

- Target Or System: Nuclear receptor subfamily 1 group I member 2 (Rattus norvegicus) (UniProt Q9R1A7)
- Sequence (Q9R1A7 whole entry, looked up): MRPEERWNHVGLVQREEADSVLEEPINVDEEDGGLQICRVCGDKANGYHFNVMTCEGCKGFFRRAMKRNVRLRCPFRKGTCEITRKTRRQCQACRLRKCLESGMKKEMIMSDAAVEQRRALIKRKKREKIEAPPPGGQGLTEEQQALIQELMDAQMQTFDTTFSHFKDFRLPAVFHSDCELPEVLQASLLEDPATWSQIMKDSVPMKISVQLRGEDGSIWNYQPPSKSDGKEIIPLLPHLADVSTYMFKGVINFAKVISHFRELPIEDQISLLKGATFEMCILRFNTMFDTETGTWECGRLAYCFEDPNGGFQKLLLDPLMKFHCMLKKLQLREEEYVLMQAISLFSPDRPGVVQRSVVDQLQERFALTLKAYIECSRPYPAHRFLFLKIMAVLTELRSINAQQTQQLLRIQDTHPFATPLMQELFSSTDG
- Assay Method Text: Rat pregnane X receptor (rPXR) activation by small molecules, qHTS assay (AID 1346983); further: on the % scale 0 is the no-effect control and ±100 the full control effect
- Experimental Setup: rPXR luciferase reporter cells, One-Glo luminescence, 24 h; stronger effect = higher value
Records with an inconclusive call do not appear.
Recorded Endpoint: max activation (%)
Enter your answer as a number in %; do not include the unit.

Known max activation results, listed for orientation:
Compound	Target Or System	Observed
OC(CCN1CCCCC1)(c1ccccc1)c1ccccc1	Nuclear receptor subfamily 1 group I member 2 (Rattus norvegicus) (UniProt Q9R1A7)	-1.14
CCC1Nc2cc(Cl)c(S(N)(=O)=O)cc2S(=O)(=O)N1 (stereo not given)	Nuclear receptor subfamily 1 group I member 2 (Rattus norvegicus) (UniProt Q9R1A7)	-2.65
CC(C)(CO)[C@@H](O)C(=O)NCCCO	Nuclear receptor subfamily 1 group I member 2 (Rattus norvegicus) (UniProt Q9R1A7)	-0.489

Query: max activation; subject: Cc1ccc2c(c1)c1c3n2CCNC3CCC1 (stereo not given) -0.806

Query: max activation; subject: `C[C@H]1O[C@H](O[C@H]2[C@H](O)[C@@H](O)[C@@H](O[C@H]3[C@H](O)[C@@H](O)[C@H](O)O[C@@H]3CO)O[C@@H]2CO)[C@H](O)[C@@H](O)[C@@H]1N[C@H]1C=C(CO)[C@@H](O)[C@H](O)[C@H]1O` -1.07

Query: max activation; subject: `COc1cc2c3cc1Oc1cc(ccc1O)C[C@@H]1c4c(cc(OC)c(O)c4Oc4ccc(cc4)C[C@@H]3N(C)CC2)CC[N+]1(C)C` -3.43
